B1: TRIM15 (parent)
chain: LSQMGAQSSGKILLCPLCQEEEQA

variants of: B1; experiment: protein stability index of a GFP-peptide fusion (GPS, HEK-293T) (PSI 1-6); higher = more stable; settings: c terminus: a fixed tail appended;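 also: lentivirally expressed fusions sorted by FACS into six bins by GFP to DsRed ratio, PSI derived from sequencing read proportions per bin multiplied by bin number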
The following variants are shown together with reported protein stability index values.
Lab note: jot down the number only; don't add units.

Study these solved cases before continuing.
• LSQMGAQSGGKILLCPLCQEEEQA [S9G] = 2.64
• LSQMGAGSSGKILLCPLCQEEEQA [Q7G] = 3.58
• LSQMGAQSSNKILLCPLCQEEEQA [G10N] = 4.54
• LSQMGAQSSGKILLCPTCQEEEQA [L17T] = 4.3
• LSQMGAQSSGKILLCPLCGEEEQA [Q19G] = 3.98

Incoming: Quick one: protein stability index of LSQMGAQSSGKILLCPLCQEEVQA [E22V] ?
Outgoing: 4.13

Incoming: Same thing, different variant: LSQMGAQSSTKILLCPLCQEEEQA [G10T]
Outgoing: 3.71

Incoming: Same thing, different variant: LSQMGAQSSGKILLCPLCQEELQA [E22L]
Outgoing: 3.38

Incoming: Same thing, different variant: LSQMGAQSSGKILLFPLCQEEEQA [C15F]
Outgoing: 4.16
